tested on: U2OS; assay: drug sensitivity score (DSS) for viability; higher = more toxic; extreme values may be limits of the assay; details: 72 h
Here the recorded drug sensitivity score is given for each entry.

compound	drug sensitivity score
CCNC(=O)CCC/C=C\C[C@@H]1[C@@H](/C=C/[C@@H](O)CCc2ccccc2)[C@H](O)C[C@@H]1O	0
COc1c2ccoc2cc2oc(=O)ccc12	0
O=C(O)C(F)(F)C(F)(F)C(F)(F)C(F)(F)C(F)(F)C(F)(F)C(F)(F)F [ammonium-perfluorocaprylate]	0
COc1cc(-n2c(=S)[nH]c3ccccc3c2=O)c(Cl)cc1Cl	0
OCCN1CCN(CCCN2c3ccccc3Sc3ccc(C(F)(F)F)cc32)CC1	0.5
O=C(NO)c1ccc2[nH]c(=O)c(CCCc3ccccc3)nc2c1	2.4
CN1CCCN=C1COC(=O)C(O)(c1ccccc1)C1CCCCC1 (centres undefined)	0
c1ccc(CNCc2ccc(CN3CCCNCCNCCCNCC3)cc2)nc1	0
C1N2CN3CN1CN(C2)C3	0
